test: chemical genetic growth profiling, strain panel (AID 1159580);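 note: tested at 20 µM; growth read once vehicle control cultures reached saturation at 30 °C; 1 = growth at the plate median or of vehicle wells; lower values mean less growth of the strain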; details: S. cerevisiae deletion strains, growth OD, locus YOR265W, strain rbl2, active compounds read low
In all, about 5,500 compounds went through this assay and about 2,000 (36%) were called active. Not shown: some 18% with an inconclusive outcome. This is one part of the list.
Property label: normalized growth

[[record]]
molecule = "C[C@@H]1CC[C@@]23CCC4(C)[C@@](C=CC5[C@@]6(C)CCC(=O)C(C)(C)C6CC[C@]54C)(OC2=O)C3[C@H]1C (some centres undefined)"
observed = 1.01

[[record]]
molecule = "COC1CC(O[C@H]2CC[C@]3(C=O)C4CC[C@]5(C)C(C6=CC(=O)OC6)CC[C@]5(O)C4CC[C@]3(O)C2)OC(C)C1O (some centres undefined)"
observed = 0.997

[[record]]
molecule = "C[C@@H]1CC[C@@]23CCC4(C)[C@@](C=CC5[C@@]6(C)CC[C@H](O)C(C)(C)C6CC[C@]54C)(OC2=O)C3[C@H]1C (some centres undefined)"
observed = 1.01

[[record]]
molecule = "CCC(=O)NCC[C@@H]1CCc2ccc3c(c21)CCO3"
observed = 1

[[record]]
molecule = "CCC(=O)O[C@]1(C(=O)CCl)[C@@H](C)CC2C3CCC4=CC(=O)C=C[C@]4(C)[C@@]3(F)[C@@H](O)C[C@@]21C (some centres undefined)"
observed = 1.02

[[record]]
molecule = "CC(=O)O[C@@H]1c2c(ccc3ccc(=O)oc23)OC(C)(C)[C@@H]1OC(=O)CC(C)C"
observed = 1.01

[[record]]
molecule = "CCC(=O)OCC(=O)C1(OC(=O)CC)C(C)CC2C3C(Cl)CC4=CC(=O)C=CC4(C)C3C(O)CC21C (centres undefined)"
observed = 1.02

[[record]]
molecule = "NC[C@H]1O[C@H](O[C@H]2[C@H](O)[C@@H](O[C@H]3O[C@H](CO)[C@@H](O)[C@H](N)[C@H]3O)[C@H](N)C[C@@H]2N)[C@H](N)[C@@H](O)[C@@H]1O"
observed = 1

[[record]]
molecule = "CC1(C)Oc2ccc3ccc(=O)oc3c2CC1O (centres undefined)"
observed = 0.987

[[record]]
molecule = "COc1ccc(-c2cc(=O)c3c(O)cc(O)cc3o2)cc1"
observed = 0.984

[[record]]
molecule = "COC1=CC(C)[C@@H]2C[C@H]3OC(=O)C[C@H]4C(C)=C(OC)C(=O)C([C@@]34C)[C@@]2(C)C1=O (some centres undefined)"
observed = 0.982

[[record]]
molecule = "C[N+]1(C)C[C@H](O)[C@H](C(=O)[O-])C1"
observed = 1.01

[[record]]
molecule = "CC(C)c1cccc(C(C)C)c1O"
observed = 0.991

[[record]]
molecule = "COc1ccc(-c2cc(=O)c3c(O)c(OC)c(OC)c(OC)c3o2)cc1OC"
observed = 0.993

